tgt: hCB2 (Homo sapiens)
Construct: expressed in transfected cells; host or cells: HEK Flp-in
test.summary: Comparison of efficacy/potency and operational-model bias analysis between hCB2 pathways, reference CP 55,940
Type: cell-based
condition.details: relative to reference ligand CP 55,940
Marks after values point to notes of the source that are not given here.
Attribute: cAMP – pERK ΔΔlogR (±SEM)

{"compound": "CCOc1nc(NC23CC4CC(CC(C4)C2)C3)nc(N2CCN(CCOCCOCCNC(C)=O)CC2)n1", "tgt": "hCB2 (Homo sapiens)", "cAMP – pERK ΔΔlogR (±SEM)": "0.20 (0.25)"}
{"compound": "CCOc1nc(NC23CC4CC(CC(C4)C2)C3)nc(N2CCN(CCOCCOCCNC(=O)OC(C)(C)C)CC2)n1", "tgt": "hCB2 (Homo sapiens)", "cAMP – pERK ΔΔlogR (±SEM)": "0.37 (0.10)"}
{"compound": "CCCCCCC(C)(C)c1ccc([C@@H]2C[C@H](O)CC[C@H]2CCCO)c(O)c1 [CP 55,940, reference compound]", "tgt": "hCB2 (Homo sapiens)", "cAMP – pERK ΔΔlogR (±SEM)": "0.00 (0.04)"}
{"compound": "CCOc1nc(NC23CC4CC(CC(C4)C2)C3)nc(N2CCN(C)CC2)n1", "tgt": "hCB2 (Homo sapiens)", "cAMP – pERK ΔΔlogR (±SEM)": "0.20 (0.13)"}
{"compound": "CCOc1nc(NC23CC4CC(CC(C4)C2)C3)nc(N2CCN(CCF)CC2)n1", "tgt": "hCB2 (Homo sapiens)", "cAMP – pERK ΔΔlogR (±SEM)": "0.21 (0.20)"}
{"compound": "CCOc1nc(NC23CC4CC(CC(C4)C2)C3)nc(N2CCNCC2)n1", "tgt": "hCB2 (Homo sapiens)", "cAMP – pERK ΔΔlogR (±SEM)": "1.31 (0.27)***"}

---

tgt: hCB2 (Homo sapiens)
Construct: expressed in transfected cells; host or cells: HEK Flp-in
test.summary: Real-time CAMYEL BRET cAMP assay, forskolin-stimulated HEK Flp-in hCB2 cells
Type: cell-based
Attribute: EC50
readout.label: EC50 (nM)

{"compound": "CCOc1nc(NC23CC4CC(CC(C4)C2)C3)nc(N2CCN(C)CC2)n1 [Compound 15]", "readout.label": "EC50", "unit": "nM", "reported.measurement": 7.94}
{"compound": "CCOc1nc(NC23CC4CC(CC(C4)C2)C3)nc(N2CCN(CCOCCOCCNC(C)=O)CC2)n1 [Compound 14]", "readout.label": "EC50", "unit": "nM", "reported.measurement": 955}

---

tgt: hCB2 (Homo sapiens, UniProt P34972)
Construct: expressed in transfected cells; host or cells: HEK Flp-in
Sequence (P34972 whole entry): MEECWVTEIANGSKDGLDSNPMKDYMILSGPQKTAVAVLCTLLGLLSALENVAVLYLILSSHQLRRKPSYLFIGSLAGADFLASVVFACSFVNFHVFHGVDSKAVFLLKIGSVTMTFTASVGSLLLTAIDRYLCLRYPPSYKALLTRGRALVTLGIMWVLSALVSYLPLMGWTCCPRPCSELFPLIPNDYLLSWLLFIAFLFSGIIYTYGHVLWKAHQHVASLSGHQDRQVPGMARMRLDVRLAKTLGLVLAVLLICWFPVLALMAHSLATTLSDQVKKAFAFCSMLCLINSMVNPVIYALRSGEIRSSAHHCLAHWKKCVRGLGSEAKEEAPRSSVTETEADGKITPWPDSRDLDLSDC
test.summary: Comparison of efficacy/potency and operational-model bias analysis between hCB2 pathways, reference CP 55,940
Assay type: cell-based
condition.details: relative to reference ligand CP 55,940
Marks after values point to notes of the source that are not given here.
readout.label: cAMP – internalisation ΔΔlogR (±SEM)

{"molecule": "CCOc1nc(NC23CC4CC(CC(C4)C2)C3)nc(N2CCN(CCOCCOCCNC(=O)OC(C)(C)C)CC2)n1 [Compound 10]", "reported.measurement": "0.07 (0.16)"}
{"molecule": "CCOc1nc(NC23CC4CC(CC(C4)C2)C3)nc(N2CCNCC2)n1 [Compound 7]", "reported.measurement": "0.12 (0.31)"}
{"molecule": "CCCCCCC(C)(C)c1ccc([C@@H]2C[C@H](O)CC[C@H]2CCCO)c(O)c1 [CP 55,940, reference compound]", "reported.measurement": "0.01 (0.10)"}
